src = patent US11866430B2

Item-by-item account of IC50
Target: human DGKζ (Homo sapiens (Human), UniProt Q13574)
Sequence (Q13574 other isoform, or with tags, fused parts or gaps): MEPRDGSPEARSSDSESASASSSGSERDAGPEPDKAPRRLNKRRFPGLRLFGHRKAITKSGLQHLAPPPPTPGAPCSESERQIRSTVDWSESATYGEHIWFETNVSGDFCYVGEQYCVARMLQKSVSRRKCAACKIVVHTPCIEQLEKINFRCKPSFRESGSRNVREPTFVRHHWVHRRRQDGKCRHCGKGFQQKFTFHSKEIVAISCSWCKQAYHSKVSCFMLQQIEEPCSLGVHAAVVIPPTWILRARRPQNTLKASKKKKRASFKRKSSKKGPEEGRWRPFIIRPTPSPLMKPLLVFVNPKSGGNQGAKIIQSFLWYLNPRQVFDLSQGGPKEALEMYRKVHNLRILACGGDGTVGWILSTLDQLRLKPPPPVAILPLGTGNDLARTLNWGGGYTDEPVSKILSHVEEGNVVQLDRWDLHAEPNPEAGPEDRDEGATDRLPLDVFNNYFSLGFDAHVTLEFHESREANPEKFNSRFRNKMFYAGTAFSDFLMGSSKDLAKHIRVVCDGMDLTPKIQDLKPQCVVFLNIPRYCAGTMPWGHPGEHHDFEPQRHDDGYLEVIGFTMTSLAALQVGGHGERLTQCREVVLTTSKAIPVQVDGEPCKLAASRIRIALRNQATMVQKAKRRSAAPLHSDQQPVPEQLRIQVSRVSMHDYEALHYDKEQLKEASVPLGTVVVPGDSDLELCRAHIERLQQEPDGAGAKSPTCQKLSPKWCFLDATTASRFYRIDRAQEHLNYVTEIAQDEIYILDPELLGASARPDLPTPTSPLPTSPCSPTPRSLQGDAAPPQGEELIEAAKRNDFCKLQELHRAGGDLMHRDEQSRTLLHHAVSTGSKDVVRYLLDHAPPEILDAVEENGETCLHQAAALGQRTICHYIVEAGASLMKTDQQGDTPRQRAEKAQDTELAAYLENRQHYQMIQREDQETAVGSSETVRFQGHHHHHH
Experiment: DGKζ LIPGLO assay (extruded liposome substrate)
Assay type: biochemical
Details: extruded liposome substrate; read-out: DGKζ LIPGLO IC50
# number only, unit µM dropped from output

Examples from the recorded data:
compound=Cc1ccc2c(n1)c(N1CCN(C(c3ccc(F)cc3)c3ccc(F)cc3)CC1)c(C#N)c(=O)n2C measured_endpoint=IC50 reported_value=10
compound="COc1ccc2c(n1)c(N1CCN(C(c3ccc(F)cc3)c3ccc(F)cc3OC)CC1)c(C#N)c(=O)n2C (single isomer, unassigned) [Example 413]" measured_endpoint=IC50 reported_value=0.97
compound=Cc1ccc2c(n1)c(N1CCN(Cc3ccc(F)cc3O)CC1)c(C#N)c(=O)n2C measured_endpoint=IC50 reported_value=8.3

Find the recorded IC50 belonging to `CCn1ccc2c(CN3CCN(c4c(C#N)c(=O)n(C)c5ccc(Br)nc45)CC3)cccc21` and report it.
1.3

###

Molecular target: human DGKα (Homo sapiens (Human))
Sequence (P23743 other isoform, or with tags, fused parts or gaps): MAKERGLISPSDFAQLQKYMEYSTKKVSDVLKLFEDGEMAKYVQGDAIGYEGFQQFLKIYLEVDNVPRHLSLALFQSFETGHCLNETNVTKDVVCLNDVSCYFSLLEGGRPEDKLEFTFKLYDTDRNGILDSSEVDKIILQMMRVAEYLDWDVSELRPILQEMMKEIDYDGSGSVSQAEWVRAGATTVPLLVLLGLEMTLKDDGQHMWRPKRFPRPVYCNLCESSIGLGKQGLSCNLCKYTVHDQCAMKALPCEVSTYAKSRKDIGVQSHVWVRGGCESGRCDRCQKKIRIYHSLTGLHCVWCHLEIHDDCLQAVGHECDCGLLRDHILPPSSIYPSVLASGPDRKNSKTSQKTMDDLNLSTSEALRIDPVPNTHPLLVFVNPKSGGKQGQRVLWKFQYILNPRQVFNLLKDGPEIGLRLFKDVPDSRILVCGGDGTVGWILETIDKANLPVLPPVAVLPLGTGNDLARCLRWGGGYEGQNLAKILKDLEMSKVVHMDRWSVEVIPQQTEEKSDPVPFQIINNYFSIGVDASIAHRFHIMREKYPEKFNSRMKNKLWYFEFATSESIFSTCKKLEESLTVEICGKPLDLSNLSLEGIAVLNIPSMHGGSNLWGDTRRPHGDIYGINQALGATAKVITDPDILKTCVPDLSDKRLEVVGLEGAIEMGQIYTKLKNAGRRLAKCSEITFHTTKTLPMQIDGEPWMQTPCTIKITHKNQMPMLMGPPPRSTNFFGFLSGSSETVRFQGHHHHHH
Assay: biochemical
Conditions: detergent/lipid micelle substrate; read-out: DGKα IC50
Field: label. Allowed values: 1 (IC50 < 900 nM) or 0 (IC50 >= 900 nM).

Say whether its IC50 is strictly beneath 900 nM. Entry: Cn1c(=O)c([N+](=O)[O-])c(N2CCN(CC(O)c3ccc(F)cc3)CC2)c2nc(C#N)ccc21 (stereo not shown)
0

Try COc1cc(F)ccc1C(c1ccc(F)cc1)N1CCN(c2c(C#N)c(=O)n(C)c3ccc(Br)nc23)CC1 (single isomer, unassigned) [Example 17] next.
0

Try `Cn1c(=O)c(C#N)c(N2CCN(Cc3cc(F)cc(Cl)c3)CC2)c2nc(Cl)ccc21` next.
1

Try Cc1cccc(OCc2cncc(C#N)c2)c1C(c1ccc(F)cc1)N1CCN(c2c([N+](=O)[O-])c(=O)n(C)c3ccc(Br)nc23)CC1 (single isomer, unassigned) [Example 89] next.
0

Try `O=c1c([N+](=O)[O-])c(N2CCN(C(c3ccccc3)c3ccccc3)CC2)c2ncccc2n1CCC=C(F)F` next.
0

Try `Cc1cccc(CN2CCN(c3c(C#N)c(=O)n(C)c4ccc(Cl)nc34)CC2)c1F` next.
1

Try `Cn1c(=O)c(C#N)c(N2CCN(Cc3ccccc3F)CC2)c2nc(Cl)ccc21` next.
1

###

Item-by-item account of pIC50
Test system: OT-1 antigen-specific CD8+ T cells with MC38 tumor cells
Test: Murine Cytotoxic T Lymphocyte Assay (IFN-γ)
Format: cell-based, mouse
Conditions: read-out: msCTL INF-γ IC50; murine CTL IFN-γ (table title reads INF-γ Whole Blood Normalized Agonist EC50)
pIC50 is a log-scale quantity: -log10 of the concentration expressed in molar.

Examples from the recorded data:
compound="C#CCn1c(=O)c([N+](=O)[O-])c(N2CCN(C(C)c3ccc(F)cc3)CC2)c2nc(C#N)ccc21 (single isomer, unassigned) [Example 136]" reported_value=7.05
compound="COc1cc(F)ccc1C(c1ccc(F)cc1)N1CCN(c2c(C#N)c(=O)n(C)c3ccc(C#N)nc23)CC1 (single isomer, unassigned) [Example 406]" reported_value=6.80
compound="C#CCn1c(=O)c([N+](=O)[O-])c(N2CCN(C(c3ccc(F)cc3)c3ccccc3O)CC2)c2nc(C#N)ccc21 (single isomer, unassigned) [Example 134]" reported_value=5.94
compound="COc1cc(F)ccc1C(c1ccc(F)cc1)N1CCN(c2c(C#N)c(=O)n(C)c3ccc(C#N)nc23)CC1 (single isomer, unassigned) [Example 407]" reported_value=7.40
compound="C#CCn1c(=O)c([N+](=O)[O-])c(N2CCN(C(C)c3ccc(F)cc3)CC2)c2nc(C#N)ccc21 (single isomer, unassigned) [Example 137]" reported_value=6.64

Pending compound:
Find the recorded pIC50 belonging to C#CCn1c(=O)c([N+](=O)[O-])c(N2CCN(C(c3ccc(F)cc3)c3ccccc3O)CC2)c2nc(C#N)ccc21 (single isomer, unassigned) [Example 133] and report it.
7.22
